molecular target: human CYP 1A2 (Homo sapiens); test: CYP inhibition assay, CYP 1A2; type: in vitro ADME
pIC50: −log10 of the molar value. Structures can show the parent of a compound that is named as a salt.
test.readout: pIC50

molecule="CCc1cc(Nc2ncc(N3CCN[C@H](C)C3)c(Nc3cc(C)n(C)n3)n2)nc(C)c1F [Example 7, dihydrochloride]" measured_on="human CYP 1A2 (Homo sapiens)" test_readout=pIC50 result_value="< 4.52"

* * *

Below, each entry is listed with its recorded pIC50.
Biological target: human CYP 1A2 (Homo sapiens)
Sequence (P05177 1-516): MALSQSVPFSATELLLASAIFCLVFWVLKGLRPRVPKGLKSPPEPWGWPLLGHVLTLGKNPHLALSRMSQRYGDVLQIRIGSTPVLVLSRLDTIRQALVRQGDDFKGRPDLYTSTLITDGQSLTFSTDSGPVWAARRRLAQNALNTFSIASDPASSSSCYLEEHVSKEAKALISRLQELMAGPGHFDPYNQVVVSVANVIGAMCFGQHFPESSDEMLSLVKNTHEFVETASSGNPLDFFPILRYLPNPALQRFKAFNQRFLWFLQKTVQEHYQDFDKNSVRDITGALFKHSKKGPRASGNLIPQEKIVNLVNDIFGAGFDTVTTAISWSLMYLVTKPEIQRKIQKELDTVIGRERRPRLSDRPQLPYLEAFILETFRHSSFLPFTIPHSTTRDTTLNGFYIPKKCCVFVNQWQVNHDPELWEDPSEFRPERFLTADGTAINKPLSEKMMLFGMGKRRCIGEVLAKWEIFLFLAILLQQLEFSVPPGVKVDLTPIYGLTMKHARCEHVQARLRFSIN
Assay: Time dependent CYP inhibition assay, CYP 1A2
Assay type: in vitro ADME
pIC50: −log10 of the molar value. Counter-ions that a name gives are not always drawn.
test.readout: pIC50

molecule="CCc1cc(Nc2ncc(N3CCN[C@H](C)C3)c(Nc3cc(C)n(C)n3)n2)nc(C)c1F [Example 7, dihydrochloride]" measured_on="human CYP 1A2 (Homo sapiens)" result_value="< 4.25"
molecule="Cc1nc(Nc2ncc(N3CCN(C)[C@H](C)C3)c(Nc3cc(C)n(C)n3)n2)cc(C2CC2)c1F [Example 13]" measured_on="human CYP 1A2 (Homo sapiens)" result_value="< 4.25"
molecule="Cc1nc(Nc2ncc(N3CCN[C@H](C)C3)c(Nc3cnn(C)n3)n2)cc(C2CC2)c1Cl [Example 10]" measured_on="human CYP 1A2 (Homo sapiens)" result_value="< 4.25"

* * *

tested on: P. vivax field isolates; test: Ex vivo drug susceptibility (schizont maturation) of P. vivax field isolates; format: cell-based; details: Plasmodium vivax; Plasmodium field isolates, ex vivo; read-out: P. vivax IC50
pIC50: −log10 of the molar value.
test.readout: pIC50

smiles_notation=Cc1nc(Nc2ncc(N3CCN(C)[C@H](C)C3)c(Nc3cc(C)n(C)n3)n2)cc(C2CC2)c1F measured_on="P. vivax field isolates" test_readout=pIC50 result_value=7.07

* * *

# Papp A→B at 120 min, 10 μM per entry
assay: Caco-2 permeability assay; assay type: in vitro ADME; conditions: human; Caco-2, 10 μM, pH 6.5/7.4
Structures can show the parent of a compound that is named as a salt.
test.readout: Papp A→B at 120 min, 10 μM (×10⁻⁶ cm/s)

molecule="Cc1nc(Nc2ncc(N3CCN[C@H](C)C3)c(Nc3cnn(C)n3)n2)cc(C2CC2)c1Cl [Example 10]" result_value=3.8
molecule="Cc1nc(Nc2ncc(N3CCN(C)[C@H](C)C3)c(Nc3cc(C)n(C)n3)n2)cc(C2CC2)c1F [Example 13]" result_value=19.5
molecule="CCc1cc(Nc2ncc(N3CCN[C@H](C)C3)c(Nc3cc(C)n(C)n3)n2)nc(C)c1F [Example 7, dihydrochloride]" result_value=5

* * *

Target: human CYP 2D6 (Homo sapiens, UniProt P10635)
Construct: Mixture of 180 μL of 20 mg/mL HLM and 90 μL of substrate cocktail solution; from tissue; host or cells: human liver microsomes (HLM)
Sequence (P10635 whole entry): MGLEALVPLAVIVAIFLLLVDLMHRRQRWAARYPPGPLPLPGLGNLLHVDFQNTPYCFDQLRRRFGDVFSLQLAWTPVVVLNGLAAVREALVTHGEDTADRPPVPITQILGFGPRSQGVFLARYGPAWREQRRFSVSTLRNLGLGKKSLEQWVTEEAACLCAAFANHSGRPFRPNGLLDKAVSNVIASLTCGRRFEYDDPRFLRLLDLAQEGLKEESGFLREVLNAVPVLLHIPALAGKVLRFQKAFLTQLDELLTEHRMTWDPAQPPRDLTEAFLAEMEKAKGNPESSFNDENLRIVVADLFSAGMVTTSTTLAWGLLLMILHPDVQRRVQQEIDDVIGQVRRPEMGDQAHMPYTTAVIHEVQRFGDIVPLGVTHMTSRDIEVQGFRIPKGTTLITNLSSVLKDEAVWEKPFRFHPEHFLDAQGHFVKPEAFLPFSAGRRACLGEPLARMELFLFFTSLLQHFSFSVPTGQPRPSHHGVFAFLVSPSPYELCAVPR
Assay: CYP inhibition assay, CYP 2D6
Assay type: in vitro ADME
Description: This study was conducted using specific substrates for 5 major human CYP isozymes. These substrates were used as a cocktail (phenacetin, diclofenac, S-mephenytoin, bufuralol and midazolam which are predominantly metabolised by CYP 1A2, 2C9, 2C19, 2D6 and 3A4/5, respectively) at concentrations equivalent to their respective Km values. LC-MS-MS (MRM mode) was used to follow the formation of the CYP specific metabolites. […]
Structures can show the parent of a compound that is named as a salt.
test.readout: IC50

compound="CCc1cc(Nc2ncc(N3CCN[C@H](C)C3)c(Nc3cc(C)n(C)n3)n2)nc(C)c1F [Example 7, dihydrochloride]" result_value="> 30 µM"

* * *

assay: Pharmacokinetic studies (IVPK/POPK) in male Beagle dogs; format: in vivo; details: male, Beagle, blood; Dog, IV bolus 2 mg/kg; read-out: Vss blood
test.readout: Vd (L/kg)

compound="Cc1nc(Nc2ncc(N3CCN(C)[C@H](C)C3)c(Nc3cc(C)n(C)n3)n2)cc(C2CC2)c1F [Example 13]" readout_unit=L/kg result_value=16

* * *

Catalogue of pIC50 values
target: human CYP 2D6 (Homo sapiens); construct: Mixture of 180 μL of 20 mg/mL HLM and 90 μL of substrate cocktail solution; from tissue; host or cells: human liver microsomes (HLM); assay: CYP inhibition assay, CYP 2D6; type: in vitro ADME; settings: human liver microsomes, substrate cocktail; read-out: IC50 CYP 2D6
pIC50: −log10 of the molar value.
test.readout: pIC50

compound="Cc1nc(Nc2ncc(N3CCN(C)[C@H](C)C3)c(Nc3cc(C)n(C)n3)n2)cc(C2CC2)c1F [Example 13]" result_value="< 4.52"
compound="Cc1nc(Nc2ncc(N3CCN[C@H](C)C3)c(Nc3cnn(C)n3)n2)cc(C2CC2)c1Cl [Example 10]" result_value="< 4.52"

* * *

target: human CYP 1A2 (Homo sapiens, UniProt P05177); assay: CYP inhibition assay, CYP 1A2; assay type: in vitro ADME; details: human liver microsomes, substrate cocktail; read-out: IC50 CYP 1A2
Reported IC50 is given for each of the following compounds.
test.readout: IC50

smiles_notation=Cc1nc(Nc2ncc(N3CCN[C@H](C)C3)c(Nc3cnn(C)n3)n2)cc(C2CC2)c1Cl result_value="> 30 µM"
smiles_notation=Cc1nc(Nc2ncc(N3CCN(C)[C@H](C)C3)c(Nc3cc(C)n(C)n3)n2)cc(C2CC2)c1F result_value="> 30 µM"

* * *

Each entry below carries its recorded IC50.
molecular target: human CYP 2C19 (Homo sapiens); construct: Mixture of 180 μL of 20 mg/mL HLM and 90 μL of substrate cocktail solution; from tissue; host or cells: human liver microsomes (HLM); test: Time dependent CYP inhibition assay, CYP 2C19; format: in vitro ADME
Sequence (P33261 whole entry): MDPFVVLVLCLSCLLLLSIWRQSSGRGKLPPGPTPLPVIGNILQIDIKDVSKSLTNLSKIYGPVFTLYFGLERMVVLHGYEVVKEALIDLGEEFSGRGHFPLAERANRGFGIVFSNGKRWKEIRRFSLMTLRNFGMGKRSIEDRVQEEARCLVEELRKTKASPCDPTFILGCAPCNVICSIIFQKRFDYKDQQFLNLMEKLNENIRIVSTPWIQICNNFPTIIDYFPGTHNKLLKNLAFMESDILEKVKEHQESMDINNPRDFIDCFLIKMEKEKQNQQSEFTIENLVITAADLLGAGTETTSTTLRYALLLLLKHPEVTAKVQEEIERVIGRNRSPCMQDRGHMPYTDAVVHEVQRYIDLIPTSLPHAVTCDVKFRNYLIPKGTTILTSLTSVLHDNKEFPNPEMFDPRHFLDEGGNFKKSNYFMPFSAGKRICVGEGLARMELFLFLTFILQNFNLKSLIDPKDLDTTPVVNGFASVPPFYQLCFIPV
Structures can show the parent of a compound that is named as a salt.
test.readout: IC50

molecule="CCc1cc(Nc2ncc(N3CCN[C@H](C)C3)c(Nc3cc(C)n(C)n3)n2)nc(C)c1F [Example 7, dihydrochloride]" result_value="> 56 µM"
molecule=Cc1nc(Nc2ncc(N3CCN(C)[C@H](C)C3)c(Nc3cc(C)n(C)n3)n2)cc(C2CC2)c1F result_value="> 56 µM"
molecule=Cc1nc(Nc2ncc(N3CCN[C@H](C)C3)c(Nc3cnn(C)n3)n2)cc(C2CC2)c1Cl result_value="> 56 µM"

* * *

Tested on: chloroquine-resistant K1 strain of P. falciparum
Test: In vitro antiplasmodial activity (SYBR I), K1 strain
Type: cell-based, Plasmodium falciparum
Conditions: Plasmodium falciparum; K1 strain, chloroquine-resistant; read-out: Pf IC50—K1
Description: Measuring In Vitro Antiplasmodial Activity The test samples were tested in duplicate on two separate occasions against chloroquine sensitive NF54 (MRA-1000, MR4, ATCC, Manassas, Va.) and chloroquine-resistant K1 strains of P. falciparum. […] Quantitative assessment of antiplasmodial activity in vitro was determined using the SYBR I method as described earlier (Johnson et al., 2007, Antimicrob. Agents Chemother., 51, 1926-1933). […]
// IC50 lookup, one value per entry
test.readout: IC50 (nM)

compound="Cc1nc(Nc2ncc(N3CCN(C)[C@H](C)C3)c(Nc3cnn(C)n3)n2)cc(C2CC2)c1F [Example 15]" result_value=37
compound="Cc1nc(Nc2ncc(N3CCN(C)[C@H](C)C3)c(Nc3cc(C)n(C)n3)n2)cc(C2CC2)c1F [Example 13]" result_value=15
compound="Cc1nc(Nc2ncc(N3CCN[C@H](C)C3)c(Nc3cnn(C)n3)n2)cc(C2CC2)c1Cl [Example 10]" result_value=19
compound="Cc1nc(Nc2ncc(N3CCN(C)[C@H](C)C3)c(Nc3cn(C)nn3)n2)cc(C2CC2)c1F [Example 14]" result_value=69
compound="Cc1nc(Nc2ncc(N3CCN(C)CC3)c(Nc3cn(C)nn3)n2)cc(C2CC2)c1F [Example 1]" result_value=24
compound="CCc1nc(N)nc(N)c1-c1ccc(Cl)cc1 [Pyrimethamine, pyrimethamine, reference compound]" result_value=7900

Values from patent US9957253B2
